- measurement.description: Evaluation of maximum tolerated dose (MTD) of drug conjugate
- Assay type: in vivo, mouse
- condition.set: female, BALB/c Nude, mouse, in vivo, 2 mg/kg; mice, as used in Example 8
recorded.endpoint: MTD (mg/kg)

1) CC[C@]1(O)C[C@@H]2CN(CCc3c([nH]c4ccccc34)[C@@](C(=O)OC)(c3cc4c(cc3OC)N(C)[C@H]3[C@@](O)(C(=O)NN)[C@H](O)[C@]5(CC)C=CCN6CC[C@]43[C@@H]65)C2)C1 [DAVBNH, desacetyl vinblastine hydrazide] = 2
